# assayProcedure: NCI Yeast Anticancer Drug Screen. Data for the mlh1 rad18 strain (AID 175)
# experimentalParameters: S. cerevisiae mlh1 rad18 strain growth inhibition; at 50.0 µM; stronger effect = higher value
The panel holds about 79,000 compounds, 15% with a hit somewhere; the sample as a whole holds those more often.

compound: O=[P+](O)O[P+](=O)O.O=[P+](O)O[P+](=O)O.O=[P+](O)O[P+](=O)O.O=[P+](O)O[P+](=O)O.[Cl][Pt].[Cl][Pt]
growth inhibition [%]: 12.9

compound: CC(C)=CCN1CCC2(C)c3cc(O)ccc3CCC2C1 (stereo not drawn)
growth inhibition [%]: -2.1

compound: COC(=O)C[CH2][Sn]([CH2]CC(=O)OC)([c]1ccccc1)[c]1ccccc1
growth inhibition [%]: -25.4

compound: O=P(O)(OCCc1ccccc1)Oc1ccccc1O
growth inhibition [%]: 13.6

compound: CCC(C)(C)OC(=O)CCl
growth inhibition [%]: -5.15

compound: CN(C)c1ccc(C2N(Cc3ccc(N(CCCl)CCCl)cc3)CCCN2Cc2ccc(N(CCCl)CCCl)cc2)cc1
growth inhibition [%]: 32.9

compound: C[SH+]c1ccccc1N=Cc1ccccn1.C[SH+]c1ccccc1N=Cc1ccccn1.[Ni+2].[O-][Cl+3]([O-])([O-])[O-]
growth inhibition [%]: 98

compound: CC1(C)CC(=O)CC(C)(C)C1
growth inhibition [%]: -11.2

compound: CCCCCCCC[As](C)(=O)O
growth inhibition [%]: 6.2

compound: Cc1cc(C)c(C[N+](C)(C)C)c(C)c1C
growth inhibition [%]: 98.9

compound: COc1ccc2[nH]cc(CCN)c2c1
growth inhibition [%]: -24.1

compound: COP(=O)(OC)C1(C(C)(C)C)CO1 (stereo not drawn)
growth inhibition [%]: 0.5

compound: O=C(O)CC(S)C(=O)O (stereo not drawn)
growth inhibition [%]: 14.6

====

# assayProcedure: NCI Yeast Anticancer Drug Screen. Data for the cln2 rad14 strain (AID 165);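 further: 0% = growth equal to vehicle treated cultures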
# experimentalParameters: S. cerevisiae cln2 rad14 strain, at 50.0 µM, stronger effect = higher value
About 79,000 compounds went through this panel and 15% of them were active in at least one assay; those are over-represented in the sample as a whole.

chemSmiles: N#CC(C#N)/C=C/[Se]c1ccccc1
growth inhibition (%): 26.8
//
chemSmiles: COc1ccc(P2(=S)OC(C)(C)C(C)(C)O2)cc1
growth inhibition (%): -51.6
//
chemSmiles: CCOP(=O)(OCC)c1cc2cc(O)ccc2oc1=O
growth inhibition (%): 2.75
//
chemSmiles: Nc1n[nH]c(CCc2nc(N)n[nH]2)n1
growth inhibition (%): 7.65

====

# assayProcedure: NCI Yeast Anticancer Drug Screen. Data for the rad50 strain (AID 155);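 further: 0% = growth of vehicle-only cultures of the same strain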
# experimentalParameters: S. cerevisiae rad50 strain growth inhibition; at 50.0 µM; stronger effect = higher value
This is part of a sample that, as a whole, favours compounds with a hit. Of some 79,000 tested, about 15% had one in any assay.
# if value of growth inhibition reaches 20%, tag y; if it stays below, tag n

molecule: NNc1ccccc1
cat: y
//
molecule: [Cl][Pt+2][Cl].[NH-]c1ccc(Cl)cc1[NH-]
cat: n
//
molecule: Nc1ccc([As]=[As]c2ccc(N)cc2)cc1 (stereo not given)
cat: y
//
molecule: COC1/C=C/C=C(/C)Cc2cc(O)c(Cl)c(c2)N(C)C(=O)CC(OC(=O)C(C)C)C2(C)OC2C(C)C2CC1(O)NC(=O)O2 (stereo not given)
cat: n
//
molecule: CC1CCC2(OC1)OC1C(O)C3C4CCC5CC(OC6OC(CO)C(OC7OC(CO)C(O)C(OC8OCC(O)C(O)C8O)C7OC7OC(CO)C(O)C(OC8OC(CO)C(O)C(O)C8O)C7O)C(O)C6O)C(O)CC5(C)C4CCC3(C)C1C2C (stereo not given)
cat: y
//
molecule: CNC(=O)Oc1cccc2c1C(=O)OC2=O
cat: n
//
molecule: CCCC(C)C1C(=O)N(C)C(=O)N(C)C1=O (stereo not given)
cat: n
//
molecule: CCOC(=O)C1Oc2ccc([N+](=O)[O-])c3c2C1(O)CCC3 (stereo not given)
cat: n
//
molecule: O=C(NC1CC1)c1c(O)[nH]c(=S)[nH]c1=O
cat: n
//
molecule: S=c1sc(-c2ccccc2)c[se]1
cat: y
//
molecule: COc1cc(C(CC(C)=O)c2cc3c(cc2OC(C)=O)OCO3)cc(OC)c1OC (stereo not given)
cat: n
//
molecule: C/C=C/c1cc2n(c1)C(=O)c1cc(OC3OC(C)C(NC)C(C)(O)C3O)c(C)c(O)c1NC2O (stereo not given)
cat: y
//
molecule: CCN(CC)CCn1ncc2c(N)ncnc21
cat: n
//
molecule: CNC(=O)Oc1cccc(NC(=O)OC(C)(C)C)c1
cat: n

====

# assayProcedure: NCI Yeast Anticancer Drug Screen. Data for the bub3 strain (AID 167)
# experimentalParameters: S. cerevisiae bub3 mutant strain, at 50.0 µM (retest, dose inferred, filed as 5.0), stronger effect = higher value
This is part of a sample that, as a whole, favours compounds with a hit. Of some 79,000 tested, about 15% had one in any assay.
Parameter threshold = 80%. Response is Met when growth inhibition meets or exceeds it, else Not met.

molecule: Cc1ccc(S(=O)(=O)/N=[Se](\C)c2ccccc2)cc1 (configuration not stated)
cat: Met
--
molecule: CC(=O)c1cc2c(cc1O)C(C)(C)CCC2(C)C
cat: Not met
--
molecule: CCOP(=S)(OCC)SCc1c(C)c(C)c(CSP(=S)(OCC)OCC)c(C)c1C
cat: Not met
--
molecule: c1cc[c]([Pb]([S]c2nc3ccccc3[nH]2)([c]2ccccc2)[c]2ccccc2)cc1
cat: Met
--
molecule: O=c1[nH]c2ccccc2n1C1CCN(CCCC(c2ccc(F)cc2)c2ccc(F)cc2)CC1
cat: Not met
--
molecule: CCCCCCCCN1CCN(CCCCCCCC)C2CCCCC21 (configuration not stated) (tested in a mixture with another compound)
cat: Met
--
molecule: CN(C=O)NC(=O)N(CCCl)N=O
cat: Not met
--
molecule: O=C([CH-]C(=O)c1ccccc1)c1ccccc1.O=C([CH-]C(=O)c1ccccc1)c1ccccc1.O=C([CH-]C(=O)c1ccccc1)c1ccccc1.[OH3+].[Y+3]
cat: Met
--
molecule: CC(C)[S-].CC(C)[S-].[Pt+2].c1ccc([PH+](c2ccccc2)c2ccccc2)cc1.c1ccc([PH+](c2ccccc2)c2ccccc2)cc1
cat: Met
--
molecule: CC1CCN(CCC(=O)CC(c2ccccc2)c2c(O)c3ccccc3oc2=O)CC1 (configuration not stated)
cat: Not met
--
molecule: CS(=N)(=O)CCC(N)C(=O)O (configuration not stated)
cat: Not met

====

# assayProcedure: NCI Yeast Anticancer Drug Screen. Data for the cln2 rad14 strain (AID 165);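 further: 0% = growth equal to vehicle treated cultures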
# experimentalParameters: S. cerevisiae cln2 rad14 strain, at 50.0 µM, stronger effect = higher value
This is part of a sample that, as a whole, favours compounds with a hit. Of some 79,000 tested, about 15% had one in any assay.
readoutName: growth inhibition (%)

compound: O=C(OCCOCCOC(=O)C(Cl)(Cl)Cl)C(Cl)(Cl)Cl
readoutName: growth inhibition
observed: 39.2
//
compound: COc1cc2c(cc1O)C(=O)O[C@@H]1CC=C3CCN(C)[C@H]3[C@H]21
readoutName: growth inhibition
observed: 7.1
//
compound: COc1cc(C2c3[nH]c4ccccc4c3[C@@H](Nc3ccc(C#N)cc3)[C@H]3COC(=O)N23)cc(OC)c1O (some centres not stated)
readoutName: growth inhibition
observed: 71.4
//
compound: CC1CCN(CCC(=O)CC(c2ccccc2)c2c(O)c3ccccc3oc2=O)CC1 (configuration not stated)
readoutName: growth inhibition
observed: 89.8
//
compound: CN(C)c1ccc(N=Nc2cccc(C(=O)[O-])c2)cc1.CN(C)c1ccc(N=Nc2cccc(C(=O)[O-])c2)cc1.NC1CCCCC1N.O=[N+]([O-])O.[Pt+4]
readoutName: growth inhibition
observed: 44.1
//
compound: CC(C)(O)C1=CC23CC(C)(C(=O)O)C4CCCCC4(C)C2CC1OO3 (configuration not stated)
readoutName: growth inhibition
observed: 11.4
//
compound: COP(=O)(Cc1ccccc1)OC
readoutName: growth inhibition
observed: -43.1
//
compound: CCCCCCCCCC[As](=O)(O)O
readoutName: growth inhibition
observed: 21.9
//
compound: CCOP(=O)(CC)C(Cl)(Cl)Cl (configuration not stated)
readoutName: growth inhibition
observed: -24.1
//
compound: COC1OC(CN=[N+]=[N-])C2OC12 (configuration not stated)
readoutName: growth inhibition
observed: 3.9
//
compound: CCCC1NCCOC1(O)c1ccccc1 (configuration not stated)
readoutName: growth inhibition
observed: -16.4
//
compound: CC(=O)c1ccccc1O.CO.CO.[Cl][Ta][Cl]
readoutName: growth inhibition
observed: 33.9

====

# assayProcedure: NCI Yeast Anticancer Drug Screen. Data for the sgs1 mgt1 strain (AID 161);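 further: 0% = growth of cultures given vehicle only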
# experimentalParameters: S. cerevisiae sgs1 mgt1 strain, at 5.0 µM (retest, dose inferred, filed as 0.5)
Compounds without any hit were thinned out: in the full panel of roughly 79,000, 15% have a hit. Activity calls are given as the source filed them. No stated cut-off is given here; in the data, active means growth inhibition above about 70%; inactive means the rest.
Classes used: T for active, F for inactive

compound: C[C](=O)[Hg][O]c1ccc(N=Cc2ccccc2O)cc1
cat: T
//
compound: CC(C)c1ccc(C(c2c(O)c3ccccc3oc2=O)c2c(O)c3ccccc3oc2=O)cc1
cat: F
//
compound: C[CH2][Sn]([CH2]C)[O][Sn]([Cl])([CH2]C)[CH2]C
cat: F
//
compound: CCCCCCCCCCCCCCCC[N+](C)(C)CCOS(C)(=O)=O
cat: T
//
compound: CC[C@@H]1C(=O)OC[C@@H]1Cc1cncn1C
cat: F
//
compound: O=C(N/N=C/c1cc(Br)cc(Br)c1[O-])c1ccccc1O.O=C(N/N=C/c1cc(Br)cc(Br)c1[O-])c1ccccc1O.[Zn+2]
cat: T
//
compound: CC[C@@]1(O)C[C@H](OC2CC(N(C)C)C(O)C(C)O2)c2c(cc3c(c2O)C(=O)c2c(O)ccc(O)c2C3=O)[C@H]1C(=O)OC (stereo not given in full)
cat: T
//
compound: CC(=O)[O][Hg][c]1c(C)c(C)cc(C)c1C
cat: T
//
compound: Cc1ccc([NH-])cc1C.Cc1ccc([NH-])cc1C.[Cl][Pt+2][Cl]
cat: F
//
compound: COc1ccc([As](O[As](c2ccc(OC)cc2)c2ccc(OC)cc2)c2ccc(OC)cc2)cc1
cat: T
//
compound: C[CH2][Sn]1([CH2]C)[O]S(=O)(=O)[O]1
cat: F
//
compound: CC(=O)OC[C@]12C[C@H](OC(=O)CC(C)C)C(C)=C[C@H]1OC1[C@H](O)[C@@H](OC(C)=O)[C@@]2(C)[C@@]12CO2
cat: T
//
compound: C/C1=C\[C@H](C)C[C@H](C)OC(=O)C[C@H](c2ccc(O)cc2)NC(=O)[C@@H](Cc2c(Br)[nH]c3ccccc23)N(C)C(=O)[C@H](C)NC(=O)[C@@H](C)C1
cat: T
//
compound: [C-]#[O+].[C-]#[O+].[C-]#[O+].[C-]#[O+].[C-]#[O+].[Mo+2].[Mo+4].[c-]1[c-][c-][cH-][c-]1.[c-]1[c-][c-][cH-][c-]1.c1ccc([PH+](CC[PH+](c2ccccc2)c2ccccc2)c2ccccc2)cc1
cat: T
//
compound: O=[As](O)(O)c1ccc(Cc2ccc([As](=O)(O)O)cc2)cc1
cat: F
//
compound: CC12C(=O)C=CCC1=CCC1C2CCC2(O)C(=O)OC3(C)C4CC5(C)C(COC16OC23C5C6=O)C(=O)O4 (stereo not given)
cat: F
//
compound: O=P(CCP(=O)(c1ccccc1)c1ccccc1)(c1ccccc1)c1ccccc1.[Cl][Sn]([Cl])([c]1ccccc1)[c]1ccccc1
cat: T
//
compound: Oc1cc(Cl)c(Cl)cc1Cl.[Cu+2]
cat: F
//
compound: O=C(N/N=C(/CCN1CCCC1)CC(c1ccccc1)c1c(O)c2ccccc2oc1=O)c1ccncc1 (stereo not given)
cat: F
//
compound: CC1(C(=O)O)CCCC2(C)c3cc(O)ccc3CCC12 (stereo not given)
cat: F
